Measured values drawn from patent US20250129135A1 for this set.

target: human GCG receptor (human, UniProt P47871 26-477); experiment: cell-based or functional assay
Sequence (P47871 26-477): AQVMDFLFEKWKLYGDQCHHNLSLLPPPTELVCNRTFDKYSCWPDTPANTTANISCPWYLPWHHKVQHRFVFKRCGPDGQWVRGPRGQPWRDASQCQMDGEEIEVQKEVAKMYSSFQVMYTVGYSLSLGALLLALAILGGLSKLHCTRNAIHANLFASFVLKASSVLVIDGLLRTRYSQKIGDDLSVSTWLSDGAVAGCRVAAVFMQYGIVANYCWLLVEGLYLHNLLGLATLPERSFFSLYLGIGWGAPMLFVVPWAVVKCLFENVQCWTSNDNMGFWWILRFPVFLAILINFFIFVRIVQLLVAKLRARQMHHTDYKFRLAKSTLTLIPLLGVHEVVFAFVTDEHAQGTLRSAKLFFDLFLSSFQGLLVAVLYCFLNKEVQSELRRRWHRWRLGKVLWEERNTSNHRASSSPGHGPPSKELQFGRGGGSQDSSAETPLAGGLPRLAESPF
Please go through the items and note down their cAMP Rel. A (%) against human GCG, human GCG R cells.
Give a bare numeral; the unit % is implied.

Summary for this binder, YXQGTXTSDYSIXLDKKAQXAFIEYLLETGPSSGAPPXS (Aib at 2; αMeF at 6; αMeL at 13; Lys 17 side chain AEEAc-AEEAc-γGlu-CO(CH2)18COOH; Aib at 20; Ac3c at 38; C-terminal amide (NH2)) [Compound 1] : cAMP Rel. A (%) against human GCG, human GCG R cells is 57.6

Summary for this binder, YXQGTXTSDYSIXLDKKAQXAFIEFLLESHPSSGAPPPS (Aib at 2; αMeF at 6; αMeL at 13; Lys 17 side chain AEEAc-AEEAc-γGlu-CO(CH2)18COOH; Aib at 20; C-terminal amide (NH2)) [Compound 26] : cAMP Rel. A (%) against human GCG, human GCG R cells is 43.9

Summary for this binder, YXQGTXTSDYSIXLDKKAQXAFIEFLLETGPSSGAPPPS (Aib at 2; αMeF at 6; αMeL at 13; Lys 17 side chain AEEAc-AEEAc-γGlu-CO(CH2)18COOH; Aib at 20; C-terminal amide (NH2)) [Compound 14] : cAMP Rel. A (%) against human GCG, human GCG R cells is 50

Summary for this binder, YXQGTXTSDYSIXLDKKAQXAFIEYLLETGPSSGXPPPS (Aib at 2; αMeF at 6; αMeL at 13; Lys 17 side chain AEEAc-AEEAc-γGlu-CO(CH2)18COOH; Aib at 20; Aib at 35; C-terminal amide (NH2)) [Compound 7] : cAMP Rel. A (%) against human GCG, human GCG R cells is 98.3

Summary for this binder, YXQGTXTSDYSIXLDKKAQXAFIEFLLEGGPSSXHPPPS (Aib at 2; αMeF at 6; αMeL at 13; Lys 17 side chain AEEAc-AEEAc-γGlu-CO(CH2)18COOH; Aib at 20; Aib at 34; C-terminal amide (NH2)) [Compound 36] : cAMP Rel. A (%) against human GCG, human GCG R cells is 127

Summary for this binder, YXQGTXTSDYSIFLDKKAQXAFIEFLLESHPSSGAPPPS (Aib at 2; αMeF at 6; Lys 17 side chain AEEAc-AEEAc-γGlu-CO(CH2)18COOH; Aib at 20; C-terminal amide (NH2)) [Compound 15] : cAMP Rel. A (%) against human GCG, human GCG R cells is 41
